System: NCI-H23 lung
Test: NCI tumour cell line growth inhibition, 48 h
Assign TGI to each entry below.

Recorded results for 8 molecules are shown here.
Molecule	TGI
Clc1ccc2c(c1)N(CCCN1CCCC1)c1ccccc1S2	24 µM
CC(=O)NC(CCC(=O)C=[N+]=N)C(=O)O (stereo not given)	> 100 µM
CC(=O)Oc1ccccc1/C=C/C(=O)/C=C/c1ccccc1OC(C)=O	4.61 µM
Cc1cc(S(=O)(=O)Nc2cc(N)[nH]n2)c(SCc2nc(N)nc(N(C)C)n2)cc1Cl	> 10 µM
CC1C[C@H](C)CC(C(O)CC2CC(=O)N(Cc3ccccc3)C(=O)C2)C1O (stereo not given in full)	> 100 µM
COc1ccc(C(=O)c2cc(OC)c(OC)c(OC)c2)cc1/C=C/C(=O)c1ccc(OC)c(OC)c1	> 100 µM
N#Cc1ccccc1NC(=O)C(=O)c1c(O)c2ccccc2oc1=O	> 100 µM
O=c1[nH]nc(Cc2ccccc2)n1/N=C\c1ccccc1	> 100 µM

Would you mind giving TGI for every molecule in the list below?
1. CC(C)(C)OC(=O)NCCc1cccc2c1oc1c(CCC(=O)O)cccc12
2. COC(CC1(/C=C/O[Si](C(C)C)(C(C)C)C(C)C)C(=O)N(C)c2ccccc21)OC (stereo not given)

**Result**
> 100 µM
> 100 µM

====

Assign TGI to each entry below.
Test system: SN12C renal
Test: NCI tumour cell line growth inhibition, 48 h

Compound	Target system	Assay result
CC(C)(C)Nc1noc(=O)n1C(C)(C)C	SN12C renal	> 100 µM
Clc1ccc2c(c1)N(c1ncnc3ccc(-c4cnc5[nH]ccc5c4)cc13)CC2	SN12C renal	20 µM
NC(=S)N/N=C1\NC(=O)/C(=C/c2ccc3c(c2)OCO3)S1	SN12C renal	> 100 µM
O=C(CSc1nc2[nH]ncc2c(=O)[nH]1)c1ccc(Cl)cc1	SN12C renal	> 100 µM

Would you mind giving TGI for every compound in the list below?
1. CO/N=C(\C(=O)N(C)n1cnnc1)c1csc(NC(c2ccccc2)(c2ccccc2)c2ccccc2)n1
2. CC(SC(=S)N1CCOCC1)C(=O)Nc1nnc(-c2ccccc2)o1 (stereo unspecified)
3. Cc1nc2c(=O)n(-c3ccccc3)c3ccccc3c2o1
4. Cc1ncc2c(=O)c3c(oc2n1)c1ccccc1n3Cc1ccccc1
5. CNC(=O)N(CCC#N)CCCN(C(=O)NC)c1ccccc1
6. O=C(/C(=C\c1ccc([N+](=O)[O-])cc1)S(=O)Cc1ccc(F)cc1)c1ccc(F)cc1 (stereo unspecified)

**Result**
1. > 10 µM
2. > 100 µM
3. > 100 µM
4. > 100 µM
5. > 100 µM
6. 3.99 µM

**Query** Provide only the value of recorded TGI for `CC1=NOC(=O)/C1=C/c1cccc2ccccc12`
**Result** > 100 µM

====

Tested on: A549 NSCLC
Test: NCI tumour cell line growth inhibition, 48 h; in the data active = GI50 below about 0.43 µM; inactive = the rest
The categories you may choose from are active, inactive

Sample answers from the record:
Compound	Category label
O=C(/C(=C\c1ccc([N+](=O)[O-])cc1)S(=O)Cc1ccc(F)cc1)c1ccc(F)cc1 (centres undefined)	inactive
COc1cc2nc(SCC(=O)Nc3cc(OC)c(OC)c(OC)c3)n(Cc3ccccc3)c(=O)c2cc1OC	inactive
CS(=O)(=O)Nc1ccc(-c2cc(-c3ccccc3)cc(C(N)=O)c2N)cc1	inactive

**Query** What did the test return for `Cc1ccc2ncnc(N(CC(C)C)CC(C)C)c2c1` ?
**Result** inactive

**Query** What did the test return for `Cc1ccccc1-n1ncc(C(=O)c2ccccc2)c1N` ?
**Result** inactive

**Query** What did the test return for `COC(=O)[C@]12CC[C@@H](C)[C@H](C)[C@@H]1C1=CC[C@@H]3[C@@]4(C)C(C=O)=C[C@@](C)(COC(C)=O)C4=CC[C@@]3(C)[C@]1(C)CC2` ?
**Result** inactive

**Query** What did the test return for `O=C1c2ccccc2S(=O)(=O)N1CSC(=S)N1CCCCC1` ?
**Result** inactive

**Query** What did the test return for `O=C1c2nsnc2C(=O)c2c(F)c(F)c(F)c(F)c21` ?
**Result** inactive

**Query** What did the test return for `CCOC(=O)c1c(C)n2c(=O)cc(C)c3c(O)c(O)cc1c32` ?
**Result** inactive

**Query** What did the test return for CC(C)(C)C(=O)OCOP(=O)(OCOC(=O)C(C)(C)C)C1CC(O)N(O)C1=O (centres undefined) ?
**Result** inactive

**Query** What did the test return for `CCOC(=O)n1cc(C2=C(c3cn(C)c4ccccc34)COC2=O)c2ccccc21` ?
**Result** active

**Query** What did the test return for `O=C1NC(=O)C(=C/C=C/c2ccccc2)C(=O)N1` ?
**Result** inactive

**Query** What did the test return for `COc1ccc2c(CN3CCC(C(=O)O)CC3)cc3cc4c(cc3c2c1)OCO4` ?
**Result** inactive

**Query** What did the test return for `Nc1nc2c(s1)CCc1c-2c(Br)n(Cc2ccccc2)c1Br` ?
**Result** inactive

**Query** What did the test return for `Cn1cc(C2=C(c3cn(C)c4c([N+](=O)[O-])cccc34)C(=O)NC2=O)c2ccccc21` ?
**Result** inactive

**Query** What did the test return for `O=C(N/N=C/c1cc(Cl)cc(Cl)c1[O-])c1ccccc1O.O=C(N/N=C/c1cc(Cl)cc(Cl)c1[O-])c1ccccc1O.[Zn+2]` ?
**Result** inactive

====

System: SN12C renal
Test: NCI tumour cell line growth inhibition, 48 h
Reported endpoint: TGI

Compound	Assay result
CNC(=O)SCC(N)C(=O)O (stereo unspecified)	> 100 µM

Would you mind giving TGI for every compound in the list below?
1. COC(=O)/C(=N\Nc1nc(=S)[nH]n1N)C(C#N)c1ccccc1 (stereo unspecified)
2. CC(=O)NC(CCC(=O)C=[N+]=N)C(=O)O (stereo unspecified)
3. CCC[C@H](NS(=O)c1ccc(C)cc1)C(C(=O)OCC)=C(c1ccccc1)c1ccccc1 (stereo partly specified)
4. Cc1ccc(S(=O)(=O)N2CCSCCN(S(=O)(=O)c3ccc(C)cc3)CCN(S(=O)(=O)c3ccc(C)cc3)CC2)cc1

**Result**
1: > 100 µM; 2: > 100 µM; 3: 41.7 µM; 4: > 100 µM

Would you mind giving TGI for every compound in the list below?
1. COCCCNC(=O)C1=C(C)NC(C)=C(C(=O)NCCCOC)C1
2. Cc1oc2c(Cl)cc(O)c(Cl)c2c2cccc1-2
3. O=C(CN(/C=C/C(=O)C(F)(F)F)c1ccc(Cl)cc1)c1ccccc1
4. CCOC(=O)n1cc(C2=C(c3cn(C)c4ccccc34)COC2=O)c2ccccc21
5. c1ccc(-n2nc3ccc4nonc4c3n2)cc1

**Result**
1. > 100 µM
2. 80.7 µM
3. 34.2 µM
4. > 100 µM
5. > 100 µM

**Query** Provide only the value of recorded TGI for `CC(=O)NC1=C(NCCN(C)C)C(=O)c2ccccc2C1=O`
**Result** 27.8 µM

====

Tested on: HCC-2998 colon
Test: NCI tumour cell line growth inhibition, 48 h
Reported endpoint: TGI

Molecule	Target system	TGI
CO/N=C(\C(=O)N(C)n1cnnc1)c1csc(NC(c2ccccc2)(c2ccccc2)c2ccccc2)n1	HCC-2998 colon	> 10 µM

Would you mind giving TGI for every molecule in the list below?
1. Nc1nc(OCc2cc(Br)cs2)c2[nH]cnc2n1
2. CN(C)S(=O)(=O)/N=C/c1cccc(/C=N/S(=O)(=O)N(C)C)c1
3. Cc1ccccc1-n1ncc(C(=O)c2ccccc2)c1N
4. COC(=O)C(C(=O)C(=O)Nc1nc(=S)[nH][nH]1)c1csc(-n2nc(-c3ccccc3)cc2-c2ccccc2)n1 (stereo unspecified)

**Result**
> 100 µM
> 100 µM
> 25 µM
> 100 µM

Would you mind giving TGI for every molecule in the list below?
1. CCC(=O)c1ccc2[nH]c3c(C)c4c(=O)cc(C)[nH]c4c(C)c3c2c1
2. CNC(=O)SCC(N)C(=O)O (stereo unspecified)
3. c1ccc(CNCCCCNCCCNCc2ccccc2)cc1
4. CC(=O)NC(CCC(=O)C=[N+]=N)C(=O)O (stereo unspecified)
5. CC1(C)Cc2c(C#N)c(N)c3c(c2CO1)C(=O)OC3=O
6. Clc1ccc2c(c1)N(CCCN1CCCC1)c1ccccc1S2

**Result**
> 100 µM
> 100 µM
31.3 µM
> 100 µM
> 100 µM
15.5 µM

====

System: LOX IMVI melanoma
Test: NCI tumour cell line growth inhibition, 48 h
Reported endpoint: TGI (µM)
Answers are plain numbers, in µM.

Compound	TGI (µM)
Clc1ccc2c(c1)N(CCCN1CCCC1)c1ccccc1S2	7.14
CCOC(=O)c1c(C)n2c(=O)cc(C)c3c(O)c(O)cc1c32	30.5
COc1ccc2c(c1)[n+](=O)c(C(=O)c1ccco1)c(C(F)(F)F)n2[O-]	3.59
C=CC(C1=CC(=O)C(OC)=CC1=O)c1ccccc1 (centres undefined)	31.7

Would you mind giving TGI for every compound in the list below?
1. Cc1ccc(N=Nc2ccc(O)c(CN(C)C)c2)cc1
2. COc1ccc2cc(-c3cc4c(oc3=O)-c3ccccc3OC4O)c(=O)oc2c1 (centres undefined)

**Result**
1. 28.6
2. 31.2

Would you mind giving TGI for every compound in the list below?
1. CCN1C(=O)N(CC)C2Nn3c(s/c(=C\c4ccccc4Br)c3=O)=NC21 (centres undefined)
2. CC(=O)O[C@H]1/C(=C/c2ccncc2)C[C@H]2[C@@H]3CC=C4C[C@@H](N5CCCC5)CC[C@]4(C)[C@H]3CC[C@]12C
3. COc1cc(OC)c(/C=C\c2ccnc3ccccc23)c(OC)c1
4. Nc1nc(OCc2cc(Br)cs2)c2[nH]cnc2n1
5. Cc1ccc(C(SCC(N)C(=O)O)(c2ccc(C)cc2)c2ccc(C)cc2)cc1 (centres undefined)

**Result**
1. 30.6
2. 6.82
3. 13.6
4. 98.1
5. 20.2

Would you mind giving TGI for every compound in the list below?
1. COc1c(C(=O)c2ccc([N+](=O)[O-])cc2)cc(C(C)(C)C)cc1C(C)(C)C
2. O=C(N/N=C/c1cc(Cl)cc(Cl)c1[O-])c1ccccc1O.O=C(N/N=C/c1cc(Cl)cc(Cl)c1[O-])c1ccccc1O.[Zn+2]
3. NCCN1C(=O)CN=C(c2ccc(Cl)cc2)c2cc(Cl)ccc21

**Result**
27.7
14.6
32.4

Reference for the values: PubChem BioAssay (NCI)
